Where do these numbers come from? They come from ChEMBL document CHEMBL1142540.

# assay: Inhibition of HIV1 LTR-driven CAT gene expression in Tat-stimulated human JURKAT cells
# Type: cell-based
# conditions-used: Human immunodeficiency virus 1, Jurkat
Quick reference: IC50 of the listed items.
attribute-measured: IC50

1) COc1ccc(OC)c(Cc2cc(C3CCN(C(=O)c4ccc5c(c4)OCO5)CC3)nc(N)n2)c1 | < 1000 nM
2) COc1cc(Cc2cc(C3CCN(C(=O)c4ccc5c(c4)OCO5)CC3)nc(N)n2)cc(OC)c1 | < 1000 nM
3) CSc1ccc(Cc2cc(C3CCN(C(=O)c4ccc5c(c4)OCO5)CC3)nc(N)n2)cc1 | < 1000 nM

====

Quick reference: IC50 of the listed items.
# assay: Inhibition of HIV1 LTR-driven CAT gene expression in PMA-stimulated human JURKAT cells
# Format: cell-based
# conditions-used: Human immunodeficiency virus 1, Jurkat
attribute-measured: IC50

1) COc1ccc(-c2cc(C3CCN(C(=O)c4ccc5c(c4)OCO5)CC3)nc(N)n2)cc1 | 1.9 µM
2) Nc1nc(Cc2ccc(OCc3ccccc3)cc2)cc(C2CCN(C(=O)c3ccc4c(c3)OCO4)CC2)n1 | 1.2 µM
3) Nc1nc(Cc2ccc3c(c2)OCO3)cc(C2CCN(C(=O)c3ccc4c(c3)OCO4)CC2)n1 | 0.7 µM
4) COc1ccc(Cc2cc(C3CCN(C(=O)c4ccc(Cl)cc4)CC3)nc(N)n2)cc1 | > 5 µM
5) COc1ccc(Cc2cc(C3CCN(C(=O)c4ccc5c(c4)CCO5)CC3)nc(N)n2)cc1 | > 5 µM
6) C[S+]([O-])c1ccc(Cc2cc(C3CCN(C(=O)c4ccc5c(c4)OCO5)CC3)nc(N)n2)cc1 (stereo not drawn) | > 5 µM
7) Nc1nc(CCc2ccccc2)cc(C2CCN(C(=O)c3ccc4c(c3)OCO4)CC2)n1 | 2.1 µM
8) CCCCCCCC(=O)N1CCC(c2cc(Cc3ccc(OC)cc3)nc(N)n2)CC1 | > 5 µM
9) COc1ccc(Cc2cc(C3CCN(C(=O)c4ccc5[nH]ccc5c4)CC3)nc(N)n2)cc1 | > 5 µM
10) COc1ccc(Cc2cc(C3CCN(C(=O)c4ccc5c(c4)OCCO5)CC3)nc(N)n2)cc1 | > 5 µM
11) COc1ccc(Cc2cc(C3CCN(C(=O)c4ccccc4)CC3)nc(N)n2)cc1 | > 5 µM
12) COc1ccc(Cc2cc(C3CCN(C(=O)Cc4ccc(OC)c(OC)c4)CC3)nc(N)n2)cc1 | > 5 µM
13) COc1ccc(Cc2cc(C3CCN(Cc4ccc5c(c4)OCO5)CC3)nc(N)n2)cc1 | > 5 µM
14) COc1ccc(Cc2cc(C3CCN(C(=O)c4ccc5c(c4)OCO5)CC3)on2)cc1 | > 5 µM
15) COc1ccc(Cc2cc(C3CCN(C(=O)c4ccc5ccoc5c4)CC3)nc(N)n2)cc1 | > 5 µM
16) COc1ccc(Cc2cc(C3CCN(C(=O)Cc4ccc5c(c4)OCO5)CC3)nc(N)n2)cc1 | > 5 µM
17) COc1ccc(Cc2cc(C3CCN(C(=O)c4ccc5c(c4)OCO5)CC3)no2)cc1 | > 5 µM
18) COc1ccc(Cc2cc(C3CCN(C(=O)c4ccc(OC)c(OC)c4)CC3)nc(N)n2)cc1 | > 5 µM
19) Nc1nc(Cc2ccc(Cl)cc2)cc(C2CCN(C(=O)c3ccc4c(c3)OCO4)CC2)n1 | 1.3 µM
20) COc1ccc(Cc2cc(C3CCN(C(=O)c4ccc5c(c4)OCO5)CC3)nc(=O)[nH]2)cc1 | > 5 µM
21) Nc1nc(C2CCN(C(=O)c3ccc4c(c3)OCO4)CC2)c2ccccc2n1 | 2.6 µM
22) CS(=O)(=O)c1ccc(Cc2cc(C3CCN(C(=O)c4ccc5c(c4)OCO5)CC3)nc(N)n2)cc1 | > 5 µM
23) Nc1nc(Cc2ccccc2)cc(C2CCN(C(=O)c3ccc4c(c3)OCO4)CC2)n1 | 0.8 µM
24) COc1ccc(Cc2cc(C3CCN(C(=O)c4cccc5c4OCO5)CC3)nc(N)n2)cc1 | > 5 µM
25) Nc1nc(-c2ccc(Cl)cc2)cc(C2CCN(C(=O)c3ccc4c(c3)OCO4)CC2)n1 | > 5 µM
26) Cc1cc(C2CCN(C(=O)c3ccc4c(c3)OCO4)CC2)nc(N)n1 | > 5 µM
27) COc1ccc(Cc2cc(C3CCN(C(=O)c4ccc(OC)cc4)CC3)nc(N)n2)cc1 | > 5 µM
28) Nc1nc(Cc2ccc(Br)cc2)cc(C2CCN(C(=O)c3ccc4c(c3)OCO4)CC2)n1 | 0.7 µM
